Values were extracted from patent US20140248252A1.

# study.system: URAT-1 transporter (Homo sapiens, UniProt Q96S37)
# Sequence (Q96S37 whole entry): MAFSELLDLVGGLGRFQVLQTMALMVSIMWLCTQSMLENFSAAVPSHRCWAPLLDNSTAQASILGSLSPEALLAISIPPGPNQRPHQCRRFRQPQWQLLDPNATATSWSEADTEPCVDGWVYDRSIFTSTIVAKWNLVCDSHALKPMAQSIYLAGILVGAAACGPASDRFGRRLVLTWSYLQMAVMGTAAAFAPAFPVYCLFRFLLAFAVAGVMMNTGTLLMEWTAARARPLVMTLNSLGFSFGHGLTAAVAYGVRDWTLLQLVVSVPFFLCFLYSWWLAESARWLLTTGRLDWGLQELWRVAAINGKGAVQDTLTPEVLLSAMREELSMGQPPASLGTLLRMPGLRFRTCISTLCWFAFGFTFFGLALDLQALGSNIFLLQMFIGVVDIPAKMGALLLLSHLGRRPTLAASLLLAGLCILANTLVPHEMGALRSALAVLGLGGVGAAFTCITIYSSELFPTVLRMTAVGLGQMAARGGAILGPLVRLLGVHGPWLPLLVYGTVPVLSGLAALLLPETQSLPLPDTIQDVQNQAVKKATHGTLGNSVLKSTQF
# assay.procedure: URAT-1 inhibitor activity: [14C]-uric acid uptake in HEK-URAT1 cells
# experimental.context: [14C]-uric acid (20 μM), 2 minutes, normalised to the standard compound benzbromarone, read-out: inhibition of uric acid uptake (IC50)
# Method: The potency of 4-[2-(5-amino-1H-pyrazol-4-yl)-4-chlorophenoxy]-5-chloro-2-fluoro-N-(1,3-thiazol-4-yl)benzenesulfonamide as an inhibitor of the URAT-1 transporter was determined as follows. […] The protein content of solubilised HEK cells was determined by the Bradford method using Bio-Rad Bradford Reagent with bovine serum albumin (BSA) as the protein standard (concentration range 0-1 mg/mL). […] The absorbance was measured at 595 nm after incubation at room temperature for 10 minutes. […]
quantity.kind: IC50 (µM)
Reply with just the number (in µM).

# query: IC50 of entry Nc1[nH]ncc1-c1cc(Cl)ccc1Oc1cc(F)c(S(=O)(=O)Nc2cscn2)cc1Cl 3.54
